- System: SK-MEL-2 melanoma
- METHOD SUMMARY: NCI tumour cell line growth inhibition, 48 h
MEASURE NAME: TGI

{"COMPOUND": "CC1(C)COC2(OC1)C1=NS(=O)(=O)CC13CCC2C3(C)C (configuration not stated)", "TARGET OR SYSTEM": "SK-MEL-2 melanoma", "MEASURE NAME": "TGI", "RESULT": "> 100 µM"}
{"COMPOUND": "O=C(Nc1ccccc1)c1cc(S(=O)(=O)Nc2nc3ncccc3[nH]2)c(SSc2cc(Cl)c(C(=O)Nc3ccccc3)cc2S(=O)(=O)Nc2nc3ncccc3[nH]2)cc1Cl", "TARGET OR SYSTEM": "SK-MEL-2 melanoma", "MEASURE NAME": "TGI", "RESULT": "> 100 µM"}
{"COMPOUND": "C[C@]12Cc3cn[nH]c3C(=O)C1CC[C@@H]1C2CC[C@@]2(C)C1CC[C@]2(C)O (some centres not stated)", "TARGET OR SYSTEM": "SK-MEL-2 melanoma", "MEASURE NAME": "TGI", "RESULT": "> 100 µM"}
{"COMPOUND": "O=C1c2ccccc2C2=Cc3ccccc3C(O)N12 (configuration not stated)", "TARGET OR SYSTEM": "SK-MEL-2 melanoma", "MEASURE NAME": "TGI", "RESULT": "> 100 µM"}
{"COMPOUND": "Cc1cn(C2CC(n3cncn3)C(C(C)O)O2)c(=O)[nH]c1=O (configuration not stated)", "TARGET OR SYSTEM": "SK-MEL-2 melanoma", "MEASURE NAME": "TGI", "RESULT": "> 100 µM"}
{"COMPOUND": "Cn1c2c(c3ccccc31)C1C(=O)N(c3ccccc3)C(=O)C1CC2 (configuration not stated)", "TARGET OR SYSTEM": "SK-MEL-2 melanoma", "MEASURE NAME": "TGI", "RESULT": "> 303 µM"}
{"COMPOUND": "O=C1c2ccccc2C(=O)c2c1ccc(C(Br)Br)c2Cl", "TARGET OR SYSTEM": "SK-MEL-2 melanoma", "MEASURE NAME": "TGI", "RESULT": "12.4 µM"}
{"COMPOUND": "Cc1cn(CCCCCCOC(=O)NC(CCCN=C(N)N)C(=O)O)c(=O)[nH]c1=O (configuration not stated)", "TARGET OR SYSTEM": "SK-MEL-2 melanoma", "MEASURE NAME": "TGI", "RESULT": "> 100 µM"}

Challenge: Form field: reported TGI of "COc1ccc(C(=O)N/N=C2\C(=O)c3c(C)cc(C)cc3CC2(C)C)cc1"
Response given: 36.2 µM

Challenge: I'd like to know its TGI. The compound in question is "O=C(CSc1nccc(=O)[nH]1)c1ccccc1"
Response given: > 100 µM

Challenge: I'd like to know its TGI. The compound in question is "CN(CC(=O)O)S(=O)(=O)c1ccc(F)cc1"
Response given: > 100 µM

* * *

- Test system: BT-549 breast
- METHOD SUMMARY: NCI tumour cell line growth inhibition, 48 h
MEASURE NAME: TGI

{"COMPOUND": "CC(C)OC(=O)c1ccc(CCc2cc(O)c(Br)cc2O)cc1", "TGI": "30 µM"}
{"COMPOUND": "COc1ccc2nccc(NCCCN3CCN(CCCNc4ccnc5ccc(OC)cc45)CC3)c2c1", "TGI": "11.6 µM"}
{"COMPOUND": "O=c1cc(-c2ccccc2)[nH]c2ccc(N3CCCCC3)cc12", "TGI": "> 100 µM"}
{"COMPOUND": "O=C(c1ccc(Cl)c(Cl)c1)N(Cc1cccnc1)C(=S)N(Cc1cccnc1)C(=O)c1ccc(Cl)c(Cl)c1", "TGI": "65.8 µM"}
{"COMPOUND": "O=C(O)c1c(-c2ccccc2)c(=O)[nH]c2ccccc12", "TGI": "> 100 µM"}
{"COMPOUND": "CC1=C(C(=O)NNC(=O)c2ccccc2)CC(C(=O)NNC(=O)c2ccccc2)=C(C)N1", "TGI": "> 100 µM"}

Challenge: Any idea what TGI was measured for CC(=O)N1N=C(c2cc(C)ccc2O)CC1c1cccc(Cl)c1 (stereo not given) ?
Response given: > 100 µM

Challenge: I am curious: what TGI value has been reported for "COc1ccc2c(-c3ccc(OCCN(C)C)cc3)c(Oc3ccccc3)c(=O)oc2c1" ?
Response given: 24.4 µM

Challenge: Given the entry "N#Cc1c(-c2ccc(Cl)cc2)cc(-c2ccc(Nc3ccnc4cc(C(F)(F)F)ccc34)cc2)nc1N" , report its measured TGI.
Response given: > 100 µM

Challenge: Using the record for "Cc1nnc(N)nc1/C=C\c1ccc(N(C)C)cc1" , report its TGI.
Response given: > 100 µM
